Target: γ-secretase (Homo sapiens)
Construct: endogenous in cells; host or cells: SKNBE2 human neuroblastoma cells (carrying hAPP 695 wild type as substrate)
Experiment: Screening for γ-secretase-modulating activity: Aβ42 in supernatant of SKNBE2 cells carrying hAPP 695 wild type (Alphalisa)
Assay type: cell-based
Details: SKNBE2 human neuroblastoma cells carrying hAPP 695 wild type, overnight incubation, Aβ42 in cell supernatant
Grouping rule (IC50): I = under 70 nM, II = from 70 nM up to 200 nM, III = 200 nM and over

As a guide, the following entries are already answered.
## Task // bin(item) where item = Cc1cn(-c2ccc3n(c2=O)C[C@@H](C)N(Cc2csc4ccc(Cl)cc24)C3=O)cn1
## Result I

## Task // bin(item) where item = COc1cccc(CN2CCn3c(ccc(-n4cnc(C)c4)c3=O)C2=O)c1
## Result III

## Task // bin(item) where item = Cc1cn(-c2ccc3n(c2=O)C[C@@H](C)N(Cc2ccc(C(F)(F)F)c(C(F)(F)F)c2)C3=O)cn1
## Result II

## Task // bin(item) where item = Cc1cn(-c2ccc3n(c2=O)CCN(CCc2c[nH]c4ccccc24)C3=O)cn1
## Result III

## Task // bin(item) where item = Cc1cn(-c2ccc3n(c2=O)CC(C)N(C2Cc4ccccc4C2)C3=O)cn1 (single isomer, unassigned)
## Result III

Others:
## Task // bin(item) where item = Cc1cn(-c2ccc3n(c2=O)CCN(Cc2cccc(Cl)c2Cl)C3=O)cn1
## Result III

## Task // bin(item) where item = Cc1cn(-c2ccc3n(c2=O)CC(C)N(C2CCc4ccc(C(F)(F)F)cc42)C3=O)cn1 (stereo not drawn) [compound 204]
## Result II
